From: patent US20210388087A1

- measurement target: T1, Human CD3eg linker (human)
- T1 construct: single-chain construct; also called recombinant human CD3
- T1 chain: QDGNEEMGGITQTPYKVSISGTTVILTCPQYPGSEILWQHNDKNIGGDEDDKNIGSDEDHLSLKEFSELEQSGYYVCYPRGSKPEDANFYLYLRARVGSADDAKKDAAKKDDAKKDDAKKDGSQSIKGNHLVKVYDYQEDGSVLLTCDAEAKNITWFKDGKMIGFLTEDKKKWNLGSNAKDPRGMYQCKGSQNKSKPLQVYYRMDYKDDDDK
- measurement notes: SPR, vs unmutated H183/L072
Items are presented alongside their recorded fold change of affinity.
Write the answer as a number in fold, unit excluded.

binder	unit of measurement	fold change of affinity
dBBDu183H G65N/dBBDu072L (antibody, name in Kabat numbering, V domains shown) VH: QVQLVESGGGLVQPGRSLRLSCAASGFTFSNAWMHWVRQAPGKGLEWVAQIKDKGNAYAAYYAPSVKNRFTISRDDSKNSIYLQMNSLKTEDTAVYYCHYVHYASASTVLPAFGVDAWGQGTTVTVSS VL: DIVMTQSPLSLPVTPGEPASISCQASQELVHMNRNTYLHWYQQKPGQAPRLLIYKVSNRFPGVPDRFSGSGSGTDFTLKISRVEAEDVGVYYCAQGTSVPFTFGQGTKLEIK	fold	0.9

Identify measured fold change of affinity corresponding to dBBDu183H A102G/dBBDu072L (antibody, name in Kabat numbering, V domains shown) VH: QVQLVESGGGLVQPGRSLRLSCAASGFTFSNAWMHWVRQAPGKGLEWVAQIKDKGNAYAAYYAPSVKGRFTISRDDSKNSIYLQMNSLKTEDTAVYYCHYVHYASASTVLPAFGVDGWGQGTTVTVSS VL: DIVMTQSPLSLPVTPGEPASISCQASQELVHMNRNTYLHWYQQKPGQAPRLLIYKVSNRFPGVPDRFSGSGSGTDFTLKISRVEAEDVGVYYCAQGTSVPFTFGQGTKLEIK
1

Identify measured fold change of affinity corresponding to dBBDu183H V63E/dBBDu072L (antibody, name in Kabat numbering, V domains shown) VH: QVQLVESGGGLVQPGRSLRLSCAASGFTFSNAWMHWVRQAPGKGLEWVAQIKDKGNAYAAYYAPSEKGRFTISRDDSKNSIYLQMNSLKTEDTAVYYCHYVHYASASTVLPAFGVDAWGQGTTVTVSS VL: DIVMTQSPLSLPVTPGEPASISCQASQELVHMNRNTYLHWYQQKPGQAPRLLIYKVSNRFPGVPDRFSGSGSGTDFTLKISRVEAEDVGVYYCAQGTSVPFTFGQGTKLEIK
1.1

Identify measured fold change of affinity corresponding to dBBDu183H G65T/dBBDu072L (antibody, name in Kabat numbering, V domains shown) VH: QVQLVESGGGLVQPGRSLRLSCAASGFTFSNAWMHWVRQAPGKGLEWVAQIKDKGNAYAAYYAPSVKTRFTISRDDSKNSIYLQMNSLKTEDTAVYYCHYVHYASASTVLPAFGVDAWGQGTTVTVSS VL: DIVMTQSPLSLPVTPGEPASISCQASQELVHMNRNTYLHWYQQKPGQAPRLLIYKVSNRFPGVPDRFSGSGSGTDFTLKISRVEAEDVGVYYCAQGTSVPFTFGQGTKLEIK
1
